target_of_assay: T1, human serum albumin (human, UniProt P02768 25-609)
T1 construct: also called HSA
assay_explanation: ELISA
measured_parameter: binding result

1. AB133 (antibody, human IgG1, V domains shown, Tested as purified recombinant whole human IgG1 (Expi293F); also called 06-AB-133; anti-whole cell mAb) VH: EVQLVESGGGLVQPGGSLRVSCAASGFTLNTYWMHWVRQAPGKGLVWVSRINEDGTTISYADSVRGRFTISRDNAENTLYLQMHSLRAEDTGVYYCARDFTGPFDSWGQGTLVSVSS VL: QSVLTQPPSVSGTPGQRVTISCSGSNSNAGRDYVSWYQQVPGTAPKLLIYKNNQRPSGVPDRFSGSKSGTSASLAISGLRSEDDGDYYCIVWDGSLSGYVFGTGTKVTVL
no binding
2. AB119 (antibody, human IgG1, V domains shown, Tested as purified recombinant whole human IgG1 (Expi293F); also called 06-AB-119; anti-whole cell mAb) VH: QVTLKESGGGLVQPGGSLRLSCVASGFTFRTYWMHWVRQDPGKGLVWVSRLDEVGRLTSYADSVNGRFTISRDNAKNILYLQMNSLRAEDTGVYYCARDLSGSADYWGQGTLVTVSS VL: DVVLTQSPLFLPVTPGEPASISCRSSQSLLHSRGHTSLHWYLQKPGQSPHLLIYSVFNRASGVPDRFSGSGSGTDFTLKISRVEAEDVGVYYCMQALEPPYTFGQGTKLEIK
no binding
